- Tested on: bamyardgrass
- protocol.text: Test B flood test barnyardgrass
- Type: in vivo, Echinochloa crus-galli
- reported.conditions: Rate 500 g/ha, Pre-emergence section of Table B; 0 to 10 scale (0 no effect, 10 complete control)
Listing: Barnyardgrass plant response rating of selected compounds
# print the numeric value only

{"compound": "CC(C)N(C(=O)n1oc(=O)n(CCc2ccccc2)c1=O)c1ccc(Cl)cc1", "study.system": "bamyardgrass", "Barnyardgrass plant response rating": 0}
{"compound": "C=C(Cn1c(=O)on(C(=O)N(c2ccccc2)C(C)C)c1=O)c1cccnc1", "study.system": "bamyardgrass", "Barnyardgrass plant response rating": 0}
{"compound": "COC(=O)C(CCO)n1c(=O)on(C(=O)N(c2ccccc2)C(C)C)c1=O (stereo not drawn)", "study.system": "bamyardgrass", "Barnyardgrass plant response rating": 0}
{"compound": "CC(C)N(C(=O)n1oc(=O)n(CC(=O)C2CC2)c1=O)c1ccc(F)cc1", "study.system": "bamyardgrass", "Barnyardgrass plant response rating": 0}
{"compound": "CC(C)N(C(=O)n1oc(=O)n(C(C)C2CC2)c1=O)c1ccc(F)cc1F (stereo not drawn)", "study.system": "bamyardgrass", "Barnyardgrass plant response rating": 0}

Proceeding to the next compound to report its Barnyardgrass plant response rating.
// CCCCCn1c(=O)on(C(=O)N(c2ccc(F)cc2F)C(C)C)c1=O : Barnyardgrass plant response rating value = 2

---

Measured Plant response rating, Corn by item
- Test system: corn
- protocol.text: Test B pre/postemergence corn
- Format: in vivo, Zea mays
- reported.conditions: Postemergence, Rate 250 g/ha; scale 0 to 10, 0 is no effect, 10 is complete control
Provide a numeric answer; units are not to be included.

Consider the following illustrative entries.
{"compound": "CC(C)N(C(=O)n1oc(=O)n(C)c1=O)c1ccccc1", "Plant response rating, Corn": 7}
{"compound": "CC(C)Cn1c(=O)on(C(=O)N(c2ccc(F)cc2F)C(C)C)c1=O", "Plant response rating, Corn": 0}
{"compound": "CSCCn1c(=O)on(C(=O)N(c2ccccc2)C(C)C)c1=O", "Plant response rating, Corn": 0}
{"compound": "CC(C)N(C(=O)n1oc(=O)n([C@@H]2C[C@H]2C)c1=O)c1ccc(F)cc1 (relative stereo)", "Plant response rating, Corn": 0}
{"compound": "CC(C)N(C(=O)n1oc(=O)n(CCl)c1=O)c1ccc(Cl)cc1", "Plant response rating, Corn": 0}

// switching to the query compound
Consider CC(C)N(C(=O)n1oc(=O)n(C2(C)CC2)c1=O)c1ccccc1 . Its measured Plant response rating, Corn is 6

---

- Tested on: rape
- protocol.text: Test B pre/postemergence rape
- Type: in vivo, Brassica napus
- reported.conditions: Preemergence, Rate 62 g/ha; scale of 0 to 10 where 0 is no effect and 10 is complete control
property.label: Rape plant response rating
Respond numerically, and do not add a unit to the figure.

{"chemical.string": "Cc1ccccc1-n1c(=O)on(C(=O)N(c2ccc(-c3ccccc3)cc2)C(C)C)c1=O", "study.system": "rape", "Rape plant response rating": 0}
{"chemical.string": "CC(C)N(C(=O)n1oc(=O)n([C@H](C)c2ccccc2)c1=O)c1ccc(Cl)cc1", "study.system": "rape", "Rape plant response rating": 0}
{"chemical.string": "Cc1ccccc1-n1c(=O)on(C(=O)N(c2ccncc2)C(C)C)c1=O", "study.system": "rape", "Rape plant response rating": 0}

GET /value?item= COCCOCn1c(=O)on(C(=O)N(c2ccc(F)cc2)C(C)C)c1=O &field=Rape plant response rating returns 1

---

Measured Ducksalad plant response rating values are reported for all entries that follow.
- System: duck salad
- protocol.text: Test B flood test duck salad
- Type: in vivo, Heteranthera limosa
- reported.conditions: Rate 125 g/ha; Pre-emergence; flood test species; scale 0 to 10 where 0 is no effect and 10 is complete control
Please reply with the number alone, leaving off any unit.

The cases that follow already have their Ducksalad plant response rating on record.
{"compound": "CC(C)N(C(=O)n1oc(=O)n(C2CCCC2)c1=O)c1ccc(Cl)cc1 [Compound 282]", "Ducksalad plant response rating": 0}
{"compound": "CCOC(=O)C(C)N(C(=O)n1oc(=O)n(-c2c(C)cccc2C)c1=O)c1ccc(F)cc1 (stereo not drawn) [Compound 244]", "Ducksalad plant response rating": 0}
{"compound": "Cc1ccccc1-n1c(=O)on(C(=O)N(c2ccc3ccccc3c2)C(C)C)c1=O [Compound 306]", "Ducksalad plant response rating": 0}

Recorded result, COCCOCn1c(=O)on(C(=O)N(c2ccc(F)cc2)C(C)C)c1=O [Compound 220] , Ducksalad plant response rating: 0

Entry CC(C)N(C(=O)n1oc(=O)n(C2CCCCCC2)c1=O)c1ccccc1 [Compound 341] , Ducksalad plant response rating reported as 0

Kindly note the recorded Ducksalad plant response rating for Cc1ccccc1-n1c(=O)on(C(=O)N(c2ccccc2F)C(C)C)c1=O [Compound 204] , which is 0

---

Reported Morningglory plant response rating values for the following compounds.
- Test system: morningglory
- protocol.text: Test B pre/postemergence morningglory
- Type: in vivo, Ipomoea hederacea
- reported.conditions: Rate 125 g/ha, Postemergence; scale 0 to 10, 0 is no effect, 10 is complete control
Simply state the number, no unit and no words.

Answered cases to consult:
{"compound": "COC(C)n1c(=O)on(C(=O)N(c2ccc(F)cc2)C(C)C)c1=O (stereo not shown)", "study.system": "morningglory", "Morningglory plant response rating": 0}
{"compound": "CC(C)N(C(=O)n1oc(=O)n(CC2=NOCCC2)c1=O)c1ccccc1", "study.system": "morningglory", "Morningglory plant response rating": 2}
{"compound": "CC(C)N(C(=O)n1oc(=O)n(C(C)C#N)c1=O)c1ccc(Cl)cc1 (stereo not shown)", "study.system": "morningglory", "Morningglory plant response rating": 1}

Entry CC(C)N(C(=O)n1oc(=O)n(C(C)CCl)c1=O)c1ccc(Cl)cc1 (stereo not shown) ; Morningglory plant response rating = 3

---

- Tested on: sugar beet
- protocol.text: Test B pre/postemergence sugar beet
- Type: in vivo, Beta vulgaris
- reported.conditions: Preemergence, Rate 125 g/ha; 0 is no effect, 10 is complete control
Items are presented alongside their recorded Sugarbeets plant response rating (0 to 10 scale).
# output: bare number, no unit

// solved cases for Sugarbeets plant response rating (0 to 10 scale) follow
{"compound": "CCc1noc(C)c1-n1c(=O)on(C(=O)N(c2ccc(F)cc2)C(C)C)c1=O", "quantitative.result": 0}
{"compound": "CC(C)N(C(=O)n1oc(=O)n([C@H](C)c2ccccc2)c1=O)c1ccc(Cl)cc1", "quantitative.result": 0}
{"compound": "CCn1c(=O)on(C(=O)N(c2ccc(F)cc2)C(C)C)c1=O", "quantitative.result": 7}
{"compound": "CC(C)N(C(=O)n1oc(=O)n(C(C)c2ccccc2)c1=O)c1ccc(F)cc1 (stereo not drawn)", "quantitative.result": 2}
{"compound": "CCn1c(=O)on(C(=O)N(c2ccc(F)cc2F)C(C)C)c1=O", "quantitative.result": 10}

Attention now shifts to the item below.
Noted for CC1CCCCC1n1c(=O)on(C(=O)N(c2ccc(F)cc2)C(C)C)c1=O (stereo not drawn) : its Sugarbeets plant response rating (0 to 10 scale) reads 0

---

- Tested on: giant foxtail
- protocol.text: Test B pre/postemergence giant foxtail
- Assay type: in vivo, Setaria faberii
- reported.conditions: Preemergence, Rate 500 g/ha; scale of 0 to 10 where 0 is no effect and 10 is complete control
property.label: Giant foxtail plant response rating
Please state the value as a number alone, without comment.

For orientation, consider the following solved cases.
{"compound": "CC(C)N(C(=O)n1oc(=O)n(C2CCC2)c1=O)c1ccc(F)cc1", "Giant foxtail plant response rating": 10}
{"compound": "CC(C)N(C(=O)n1oc(=O)n(C2CCCCCC2)c1=O)c1ccccc1", "Giant foxtail plant response rating": 10}
{"compound": "CC(C)N(C(=O)n1oc(=O)n(C(C)Cl)c1=O)c1ccc(F)cc1 (stereo not drawn)", "Giant foxtail plant response rating": 10}
{"compound": "CC(=O)OCCCCn1c(=O)on(C(=O)N(c2ccccc2)C(C)C)c1=O", "Giant foxtail plant response rating": 2}

The compound identified as CCOCn1c(=O)on(C(=O)N(c2ccc(F)cc2F)C(C)C)c1=O registered its Giant foxtail plant response rating at 10

Value of Giant foxtail plant response rating reported for the compound CC(C)N(C(=O)n1oc(=O)n(C2(C)CC2)c1=O)c1ccccc1 is 10

---

- Test system: wild oat
- protocol.text: Test B pre/postemergence wild oat
- Format: in vivo, Avena fatua
- reported.conditions: Preemergence, Rate 500 g/ha; scale of 0 to 10 where 0 is no effect and 10 is complete control
property.label: Plant response rating, Wild oats
API doc: respond with a numeric literal and nothing else, no unit.

{"chemical.string": "CC(C)N(C(=O)n1oc(=O)n(CCC2CCCCC2)c1=O)c1ccc(F)cc1", "study.system": "wild oat", "quantitative.result": 4}
{"chemical.string": "CC(C)N(C(=O)n1oc(=O)n(C2CC2)c1=O)c1ccccc1", "study.system": "wild oat", "quantitative.result": 9}
{"chemical.string": "CC(=O)NCn1c(=O)on(C(=O)N(c2ccccc2)C(C)C)c1=O", "study.system": "wild oat", "quantitative.result": 0}

Per the record, CC(C)N(C(=O)n1oc(=O)n(CCCC#N)c1=O)c1ccccc1 has Plant response rating, Wild oats of 10

Measured Plant response rating, Wild oats of Cc1cc(C)c(-n2c(=O)on(C(=O)N(c3ccc(F)cc3)C(C)C)c2=O)c(Br)c1 : 2

Lab note: Cc1ccccc1-n1c(=O)on(C(=O)N(c2ccccc2F)C(C)C)c1=O gave Plant response rating, Wild oats of 6

Entry under test: CC[C@@H](C)n1c(=O)on(C(=O)N(c2ccc(F)cc2F)C(C)C)c1=O . Its Plant response rating, Wild oats was 10

The measured values listed here are drawn from patent US6737383B1.
